This section presents binders with their documented ELISA_avg values.
Molecular target: T1, BCMA (Homo sapiens (Human), UniProt Q02223 1-54, limits assumed)
T1 sequence: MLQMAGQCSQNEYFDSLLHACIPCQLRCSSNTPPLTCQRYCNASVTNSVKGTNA
Test: ELISA, format not described
Parameters: unit not given here
RESULT TYPE: ELISA_avg

# BINDER, MEASUREMENT
rows = [
    ("D-domain SEQ ID NO: 288 (designed binder) MGSWSNFKYRLAVIKYMLEALGGSEAELAFFEDWIADFELHLQVYKGKGNPEVEALRKEAAAIRDELQAYRHN", 9.34),
    ("D-domain SEQ ID NO: 112 (designed binder) MGSWTEFHVRLSAIWDRLVALGGSEAELAAFEKEIAAFESELQAYKGKGNPEVEELRFHAAIIRIVLQAYRHN", 23.6),
    ("D-domain SEQ ID NO: 215 (designed binder) MGSWHEFWDRLYAIEFRLFALGGSEAELAAFEKEIAAFESELQAYKGKGNPEVESLRQVAAKIRWHLQAYRHN", 7.3),
    ("D-domain SEQ ID NO: 225 (designed binder) MGSWDEFQFRLAAIGFRLGALGGSEAELAAFEKEIAAFESELQAYKGKGNPEVEVLRRQAARIRHLLQAYRHN", 6.16),
    ("D-domain SEQ ID NO: 332 (designed binder) MGSWHTFKDGLAEIKSELEALGGSEAELAMFEYVIAIFEYRLQNYKGKGNPEVEALRKEAAAIRDELQAYRHN", 10.7),
]
